Below, each entry is listed with its recorded EC50.
# subject of test: hT1R1/hT1R3 umami receptor expressed in an HEK293 cell line (Homo sapiens, UniProt Q7RTX0+Q7RTX1)
# Construct: expressed in transfected cells; host or cells: HEK293 cell line derivative, hT1R1/hT1R3-HEK293-Gα15, clone I-17, mifepristone-induced
# experimental details: In vitro hT1R1/hT1R3 umami taste receptor activation assay (FLIPR, dose response)
# Format: cell-based
# details: Table A, triazoles; read-out: Umami EC50
Give the quantity in µM, number only.

# example entries with known answers
COc1ccc(-c2n[nH]c(SCc3ccccn3)n2)cc1OC
4.08
CCOc1ccc(-c2n[nH]c(SCc3ccccn3)n2)cc1
0.74

// query Give the reported EC50 for this compound. "CC(C)c1ccc(-c2n[nH]c(SCc3ccccn3)n2)cc1"
// result 0.42

###

# subject of test: hT1R1/hT1R3 umami receptor expressed in an HEK293 cell line (Homo sapiens, UniProt Q7RTX0+Q7RTX1)
# Construct: expressed in transfected cells; host or cells: HEK293 cell line derivative, hT1R1/hT1R3-HEK293-Gα15, clone I-17, mifepristone-induced
# Sequence (Q7RTX1 21-841): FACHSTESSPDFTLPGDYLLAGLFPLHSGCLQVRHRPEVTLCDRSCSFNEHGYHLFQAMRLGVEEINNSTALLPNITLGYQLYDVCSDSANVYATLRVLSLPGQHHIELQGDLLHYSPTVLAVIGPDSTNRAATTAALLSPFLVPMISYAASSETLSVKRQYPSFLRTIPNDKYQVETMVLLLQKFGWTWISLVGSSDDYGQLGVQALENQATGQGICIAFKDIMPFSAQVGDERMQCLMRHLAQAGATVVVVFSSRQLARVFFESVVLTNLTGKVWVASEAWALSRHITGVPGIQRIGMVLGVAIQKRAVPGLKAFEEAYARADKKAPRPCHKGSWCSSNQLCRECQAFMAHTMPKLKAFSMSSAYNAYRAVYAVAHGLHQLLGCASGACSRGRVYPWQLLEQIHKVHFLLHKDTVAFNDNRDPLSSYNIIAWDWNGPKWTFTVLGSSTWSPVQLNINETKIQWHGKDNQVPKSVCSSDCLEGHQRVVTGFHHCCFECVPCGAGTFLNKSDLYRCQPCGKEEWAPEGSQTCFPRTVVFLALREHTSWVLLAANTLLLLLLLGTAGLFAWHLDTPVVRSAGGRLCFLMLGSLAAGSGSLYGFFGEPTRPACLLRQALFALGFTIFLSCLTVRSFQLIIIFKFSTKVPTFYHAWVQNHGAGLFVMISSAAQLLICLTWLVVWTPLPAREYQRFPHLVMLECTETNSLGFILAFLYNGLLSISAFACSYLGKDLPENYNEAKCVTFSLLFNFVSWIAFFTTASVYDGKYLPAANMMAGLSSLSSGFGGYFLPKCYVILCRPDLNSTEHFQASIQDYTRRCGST
# Sequence (Q7RTX0 21-852): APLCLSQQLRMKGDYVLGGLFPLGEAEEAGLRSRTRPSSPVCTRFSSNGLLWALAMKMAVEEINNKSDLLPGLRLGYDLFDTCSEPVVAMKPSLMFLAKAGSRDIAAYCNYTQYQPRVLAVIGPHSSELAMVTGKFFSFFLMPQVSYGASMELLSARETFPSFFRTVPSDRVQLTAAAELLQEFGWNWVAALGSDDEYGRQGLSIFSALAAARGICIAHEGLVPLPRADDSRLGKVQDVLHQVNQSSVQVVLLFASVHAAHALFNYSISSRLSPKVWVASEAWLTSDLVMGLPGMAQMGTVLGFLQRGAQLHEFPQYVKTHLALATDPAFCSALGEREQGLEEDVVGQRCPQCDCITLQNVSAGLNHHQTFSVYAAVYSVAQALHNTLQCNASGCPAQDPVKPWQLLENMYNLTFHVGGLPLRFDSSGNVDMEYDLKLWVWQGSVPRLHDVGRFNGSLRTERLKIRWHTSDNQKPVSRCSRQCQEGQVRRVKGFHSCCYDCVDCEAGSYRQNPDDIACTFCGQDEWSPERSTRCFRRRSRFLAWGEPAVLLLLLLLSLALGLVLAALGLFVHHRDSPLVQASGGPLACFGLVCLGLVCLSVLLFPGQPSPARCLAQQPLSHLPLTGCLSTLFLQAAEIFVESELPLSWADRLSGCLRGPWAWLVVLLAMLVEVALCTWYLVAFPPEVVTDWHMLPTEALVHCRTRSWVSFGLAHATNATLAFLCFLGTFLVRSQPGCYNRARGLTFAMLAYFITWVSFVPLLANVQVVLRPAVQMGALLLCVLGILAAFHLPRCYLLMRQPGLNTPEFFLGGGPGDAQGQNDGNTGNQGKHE
# experimental details: Umami taste enhancement activity assay (EC50 ratio vs. MSG, FLIPR)
# Type: cell-based
# details: Table A, @ 0.3 μM compound
Below, each entry is listed with its recorded Ec50 ratio (vs. MSG).
Hey, just send me the number, nothing else.

// query Give the reported Ec50 ratio (vs. MSG) for this compound. COc1ccc(-c2n[nH]c(SCc3ccccn3)n2)c(C)c1 [Example A3]
// result 2.01

// query Give the reported Ec50 ratio (vs. MSG) for this compound. c1ccc(-c2n[nH]c(SCc3ccccn3)n2)cc1 [Example A17]
// result 3.02

// query Give the reported Ec50 ratio (vs. MSG) for this compound. COc1ccc(-c2n[nH]c(SCc3ccccn3)n2)cc1OC [Example A18]
// result 2.13

Where these numbers come from: patent US8784782B2
